Numbers sourced from patent US4554274A.

- Tested on: male NMRI-mice
- ASSAY_OVERVIEW: minimum symptom dose (Campbell and Richter)
- Format: in vivo
- PROTOCOL_CONDITIONS: i.p., changes in behavior in 2 out of 3 mice
Counter-ions that a name gives are not always drawn.
QUANTITY: Min. Symptom-dose (µmol/kg)
Numeric answer only, unit µmol/kg assumed.

{"columns": ["MOLECULE", "Min. Symptom-dose, µmol/kg"],
 "data": [
  ["CCC1C2CC3C4N(C)c5ccc(Br)cc5C45CC(C2C5O)[N+]3(CCN2CCCC2)C1O (stereo not drawn) [Example 8.b]", 31],
  ["CCC1C2CC3C4N(C)c5ccc(Br)cc5C45CC(C2C5O)[N+]3(CCN2CCOCC2)C1O (stereo not drawn) [Example 10]", 22],
  ["CCC1C2CC3C4N(C)c5ccc(Br)cc5C45CC(C2C5O)[N+]3(C)C1O (stereo not drawn) [Example 11.b]", 88],
  ["CCC1C2CC3C4N(C)c5ccc(Br)cc5C45CC(C2C5O)[N+]3(CCCN(CC)CC)C1O (stereo not drawn) [Example 19.b]", 31],
  ["CCCCCCCCCC[N+]12C(O)C(CC)C3CC1C1N(C)c4ccc(Br)cc4C14CC2C3C4O (stereo not drawn) [Example 15.b]", 287],
  ["CCC1C2CC3C4N(C)c5ccc(Br)cc5C45CC(C2C5O)[N+]3(CCN2CCCCC2)C1O (stereo not drawn) [Example 9.b]", 31],
  ["CCC1C2CC3C4N(C)c5ccc(Br)cc5C45CC(C2C5O)[N+]3(CC)C1O (stereo not drawn) [Example 12.b]", 21],
  ["CCCC[N+]12C(O)C(CC)C3CC1C1N(C)c4ccc(Br)cc4C14CC2C3C4O (stereo not drawn) [Example 14.b]", 20],
  ["CCC1C2CC3C4N(C)c5ccc(Br)cc5C45CC(C2C5O)[N+]3(CC(O)CN2CCCCC2)C1O (stereo not drawn) [Example 22]", 72],
  ["CCC[N+]12C(O)C(CC)C3CC1C1N(C)c4ccccc4C14CC2C3C4O (stereo not drawn) [Neo-Gilurytmal, Nb -propyl ajmalinium hydrogen tartrate, reference compound]", 12]
]}

Task: Query Min. Symptom-dose for CCC[N+]12C(O)C(CC)C3CC1C1N(C)c4ccc(Br)cc4C14CC2C3C4O (stereo not drawn) [Example 13.b]
Result: 42

* * *

The following molecules are shown together with reported LD50 at 168 h values.
- ASSAY_OVERVIEW: acute toxicity (LD50) in mice
- Type: in vivo
- PROTOCOL_CONDITIONS: mouse, in vivo, po; male NMRI-mice, p.o., mortality on 7th day; read-out: LD50 p.o.

Here's what some known entries look like.
{"columns": ["MOLECULE", "LD50 at 168 h"],
 "data": [
  ["CCC1C2CC3C4N(C)c5ccc(Br)cc5C45CC(C2C5O)[N+]3(C)C1O (stereo not shown) [Example 11.b]", "1290 µmol/kg"],
  ["CCC1C2CC3C4N(C)c5ccc(Br)cc5C45CC(C2C5O)[N+]3(CC(O)c2ccccc2)C1O (stereo not shown) [Example 21]", "2180 µmol/kg"],
  ["CCC[N+]12C(O)C(CC)C3CC1C1N(C)c4ccc(Br)cc4C14CC2C3C4O (stereo not shown) [Example 13.b]", "437 µmol/kg"]
]}

Task: Please supply the value of reported LD50 at 168 h for the item CCC1C2CC3C4N(C)c5ccc(Br)cc5C45CC(C2C5O)[N+]3(CC)C1O (stereo not shown) [Example 12.b]
Result: 1430 µmol/kg

* * *

- System: isolated left atria
- ASSAY_OVERVIEW: functional refractory period (FRP) and contraction force (CF) in isolated left atria, double stimulus method of Govier
- Set-up: species or system female guinea pigs
- PROTOCOL_CONDITIONS: Cavia porcellus, 0.3 h; isolated left atria of guinea pig, 18 minutes after application; read-out: concentration reducing contraction force (CF) to 75% of starting value
- Protocol: The prolongation of the functional refractory period (FRP) and the contraction force (CF) in the isolated left atria of female guinea pigs (albinopirbright-white guinea pigs, body weight range 300-400 g) are determined according to the double stimulus method of Govier (see W. C. Govier, J. Pharmakol, Exp. Ther. 148 (1965) pp. 100-105). […]
QUANTITY: log10 of IC25 (log10 of the value in µM)
# values: log10(IC25), units µM

{"columns": ["MOLECULE", "QUANTITY", "OBSERVED"],
 "data": [
  ["CCC1C2CC3C4N(C)c5ccc(Br)cc5C45CC(C2C5O)[N+]3(CC(O)CN2CCCCC2)C1O (stereo not drawn)", "log10 of IC25", 0.53],
  ["CCCCCCCCCC[N+]12C(O)C(CC)C3CC1C1N(C)c4ccc(Br)cc4C14CC2C3C4O (stereo not drawn)", "log10 of IC25", 2.05],
  ["CCC1C2CC3C4N(C)c5ccc(Br)cc5C45CC(C2C5O)[N+]3(C)C1O (stereo not drawn)", "log10 of IC25", 0.95],
  ["CCC1C2CC3C4N(C)c5ccc(Br)cc5C45CC(C2C5O)[N+]3(Cc2ccccc2)C1O (stereo not drawn)", "log10 of IC25", 1.22],
  ["CCC1C2CC3C4N(C)c5ccc(Br)cc5C45CC(C2C5O)[N+]3(CCN2CCCCC2)C1O (stereo not drawn)", "log10 of IC25", 0.15]
]}

Task: Return the recorded log10 of IC25 value; entry: CCC1C2CC3C4N(C)c5ccc(Br)cc5C45CC(C2C5O)[N+]3(CCN2CCCC2)C1O (stereo not drawn)
Result: 0.30

Task: Please list log10 of IC25 recorded for the molecule CCC1C2CC3C4N(C)c5ccc(Br)cc5C45CC(C2C5O)[N+]3(CCCN(CC)CC)C1O (stereo not drawn)
Result: 0.30

Task: Using the record for CCC1C2CC3C4N(C)c5ccc(Br)cc5C45CC(C2C5O)[N+]3(CC(O)c2ccccc2)C1O (stereo not drawn) , state its measured log10 of IC25.
Result: 0.51

Task: Provide only the value of recorded log10 of IC25 for CCC1C2CC3C4N(C)c5ccc(Br)cc5C45CC(C2C5O)[N+]3(CC)C1O (stereo not drawn)
Result: 0.15
